System: NCI-H358
Assay: Antiproliferative activity against human NCI-H358 cells assessed as inhibition of cell growth incubated for 48 hrs by CCK8 assay
Type: functional, cell-based
Settings: NCI-H358, 48 h
parameter-measured: pIC50
Interpret pIC50 as the negative base-10 log of the concentration measured in mol/L.

Illustrative cases are given below, each with its answer.
INSERT INTO assay_data (chem_smiles, assay_result) VALUES
  ('CC[P+](CC)(CC)CCCCC(=O)O[C@H]1CC[C@@]2(C)C(=CC[C@H]3[C@@H]4C[C@@H]5O[C@]6(CC[C@@H](C)CO6)[C@@H](C)[C@@H]5[C@@]4(C)CC[C@@H]32)C1.[Br-]', 5.45),
  ('C[C@@H]1CC[C@@]2(OC1)O[C@H]1C[C@H]3[C@@H]4CC=C5C[C@@H](OC(=O)CCCC[P+](c6ccc(F)cc6)(c6ccc(F)cc6)c6ccc(F)cc6)CC[C@]5(C)[C@H]4CC[C@]3(C)[C@H]1[C@@H]2C.[Br-]', 5.42),
  ('Cc1cc(C(=O)NO)cc(C(=O)O[C@H]2CC[C@@]3(C)C(=CC[C@H]4[C@@H]5C[C@@H]6O[C@]7(CC[C@@H](C)CO7)[C@@H](C)[C@@H]6[C@@]5(C)CC[C@@H]43)C2)c1', 4.82);

Now take the following compound into account.
Provide measured pIC50 value, entry: "C[C@@H]1CC[C@@]2(OC1)O[C@H]1C[C@H]3[C@@H]4CC=C5C[C@@H](OC(=O)CCCCCCCCC(=O)NO)CC[C@]5(C)[C@H]4CC[C@]3(C)[C@H]1[C@@H]2C" 4.98

# credit: ChEMBL document CHEMBL5131520
